Tested on: BT-549 breast
test: NCI tumour cell line growth inhibition, 48 h; in the data active means GI50 below about 0.43 µM; inactive means the rest
The reply should be one of these categories: label 1 = active, label 0 = inactive

Give the logged outcome of this assay for the following molecule: C1=Cc2ccccc2Nc2ccccc21
label 0

---

Known TGI of a selection of compounds
Test system: DMS 114 small cell lung
test: NCI tumour cell line growth inhibition, 48 h

>  <compound>
CC1C(=O)OC2CC[N+]3(CC(=O)c4ccc(Br)cc4)CC=C(COC(=O)C(C)(O)C1(C)O)C23 (stereo not given)

>  <TGI>
> 375 µM

$$$$
>  <compound>
Cc1cc(O)cc2oc(=O)c3c(O)cc(O)cc3c12

>  <TGI>
86.1 µM

$$$$
>  <compound>
O=S1(=O)OCCOS(=O)(=O)C1I

>  <TGI>
> 100 µM

$$$$
>  <compound>
C=C(C)C1CC=C(C)[C@](O)(C2(O)C[C@H](C(=C)C)CC=C2C)C1 (stereo not given in full)

>  <TGI>
> 100 µM

$$$$

For the next question, use this compound.
Name the recorded TGI for COc1ccc(N2C(=O)C3c4[nH]c5ccccc5c4C4CCCCCCCCCCC4C3C2=O)cc1 (stereo not given) .
> 47.5 µM

Recorded values, source PubChem BioAssay (NCI).
